The values you see were collected from PubChem BioAssay (NCI).

# System: A549/ATCC NSCLC
# measurement-notes: NCI-60 one-dose screen, 48 h
# assay-setup: 10 µM
This is part of a sample that, as a whole, favours compounds with a hit. Of some 83,000 tested, about 20% had one in any assay. The source made the active and inactive calls. How the source made its calls: active means growth percent below 10; inactive means the rest.
Form entry, call: pick from t (active), f (inactive)

These solved cases illustrate the format of a correct answer.
compound	answer-label
O=C(c1ccc(Cl)cc1)C1[C@H](c2ccc(Br)cc2)[C@@H](c2ccccc2)NC12C(=O)Nc1ccc(Br)cc12 (stereo partly drawn)	t
CSc1nc(-c2cccc(C)c2)c2cc(-c3ccccc3)n(C)c2n1	f
Cc1cccc(NC(=O)CSc2nc3ccc(F)cc3c(=O)n2-c2ccc(Cl)cc2)c1C	f
C=C1CCC2C3(C)COC(c4cccc(F)c4)OC3CCC2(C)C1CC(O)C1=CCOC1=O (stereo not drawn)	f
COc1ccc([C@H]2C(C(=O)c3ccc(Cl)cc3)C3(N[C@@H]2c2ccccc2)C(=O)Nc2ccc(Cl)cc23)cc1 (stereo partly drawn)	f

Could you check what this test reported for COc1ccc2[nH]c(O)c(N=NC(=O)COc3ccc(NC(=O)Nc4ccc(Cl)c(Cl)c4)cc3)c2c1 ?
t

I'd appreciate the recorded outcome for Cc1ccc(NCC(=O)Nn2c(COc3ccccc3)nc3ccccc3c2=O)cc1 from this test.
f

Assay result, entry O=C(CS(=O)(=O)c1oc(-c2ccc(Cl)cc2)nc1S(=O)(=O)c1ccccc1)N1CCCC1 — outcome?
f

I would be grateful if you could indicate the recorded call for COc1ccc2nc(Cl)c(-c3cc(-c4ccccc4)nc(=O)[nH]3)cc2c1 .
f

Record request — test call for COc1cc(NC(=O)c2cc(-c3ccc(F)cc3F)ccc2O)cc(OC)c1OC
f

Which outcome did this test record for the compound Cc1ccc(-c2nc(Nc3ccc(C)c(S(N)(=O)=O)c3)c3ccccc3n2)cc1 ?
f

For O=C(CSc1nnc(-c2c[nH]c3ccccc23)n1-c1ccccc1)Nc1ccc(C(=O)/C=C/c2ccc(Cl)cc2)cc1 , what call appears in the results of this test?
f

For Cc1ccc(-c2nc3ccc(C(=O)N=Nc4c(O)[nH]c5ccc(Cl)cc45)cc3[nH]2)cc1 , which call appears in the assay record?
f

# outcome recorded in this test, key = COc1ccc2nc(Cl)c(-c3cc(-c4ccccc4)nc(=S)[nH]3)cc2c1
f

Please share the test call associated with C=C(C)[C@@H]1CC[C@]2(C(=O)OC)CC[C@]3(C)[C@H](CC[C@@H]4[C@@]5(C)CC[C@H](N)C(C)(C)[C@@H]5CC[C@]43C)[C@@H]12 .
t

What call does the record list for CN1CCN(Cc2ccc(C(=O)Nc3cccc(Nc4ccc5c(O)cccc5n4)c3)cc2C(F)(F)F)CC1 ?
t

Which outcome was entered for the compound O=C(Nc1ccc(Cl)c(C(F)(F)F)c1)c1cncc(C#Cc2cnc3ccc(N4CCOCC4)nn23)c1 in this test?
f

Just curious, what result did CC(=O)Nc1ccc(-n2cnc3cc(-c4ccc(O)cc4)ccc32)cc1C get here?
f

---

# Tested on: EKVX NSCLC
# measurement-notes: NCI-60 one-dose screen, 48 h
# assay-setup: 10 µM
Compounds without any hit were thinned out: in the full panel of roughly 83,000, 20% have a hit. Active and inactive are the calls of the source. How the source made its calls: active means growth percent below 10; inactive means the rest.
// one of active, inactive, no free text

Some entries whose results are on file:
compound	answer-label
Cc1ccc(NC(=O)NCn2c(=O)[nH]c3ccccc3c2=O)cc1	inactive
Cc1ccc(C(=O)NCCCNc2nc(Nc3ccc(N4CCN(C)CC4)cc3)nc3ccsc23)cc1	inactive
O=C(Nc1ccc(Cl)c(C(F)(F)F)c1)c1cncc(C#Cc2cnc3ccc(N4CCOCC4)nn23)c1	inactive

Each compound tested received a call. Report the one for CCNCCCn1c2c(c3cc(OC)c(OC)cc3c1=O)C(=O)c1cc3c(nc1-2)OCO3 .
inactive

Dear all, I need the recorded test outcome for N#Cc1c(NC(=O)c2ccc(C(F)(F)F)cc2)sc2c1CCC(O)=C2 , thank you.
inactive

Hi, do you know how CN(C)c1ccc(/C=C/C(=O)c2ccc(NC(=O)CN3C(=O)NC(C)(c4ccccc4)C3=O)cc2)cc1 (stereo unspecified) came out in this test?
inactive

Check the results log: what was the call for O=C1NC(=NC2CCCCCC2)N/C1=C\c1ccc2ncoc2c1 ?
inactive

---

# Tested on: T-47D breast
# measurement-notes: NCI-60 one-dose screen, 48 h (100 = growth as untreated, 0 = no growth, -100 = all killed)
# assay-setup: 10 µM
Compounds without any hit were thinned out: in the full panel of roughly 83,000, 20% have a hit. Activity calls are given as the source filed them. The calls were made as follows: active = growth percent below 10; inactive = the rest.
Would you kindly list growth for each of these compounds?

compound	test-system	readout	reported-measurement
Cc1ccc(/C=C/C(=O)c2ccc(S(=O)(=O)NCCNc3nc(Nc4ccc(F)cc4)nc(N(C)C)n3)cc2)cc1	T-47D breast	growth	24.8% (inactive)

Can you give me growth for all of these, one by one?
1. Cc1ccc(-c2cc(-c3cc4ccccc4nc3Cl)[nH]c(=O)n2)cc1
2. COc1ccc(-c2cc(C(=O)N=Nc3c(O)[nH]c4ccccc34)c3ccccc3n2)cc1
3. COc1ccc(/C(C)=N/N=C2C(=O)N(C)c3ccc(Br)cc32)cc1S(N)(=O)=O
4. O=C(CNc1nc(-c2ccccc2)cs1)Nc1ccc(Cl)cc1

["3.13% (active)", "12.1% (inactive)", "52.6% (inactive)", "-34.6% (active)"]

Would you mind listing growth for each of the following compounds?
1. CN(CCO)c1oc(-c2ccccc2)nc1[P+](c1ccccc1)(c1ccccc1)c1ccccc1
2. O=C(CNc1nc(-c2ccccc2)cs1)Nc1ccc(Cl)cc1[N+](=O)[O-]
3. O=C(Cn1cc(CSc2nnc3oc4ccccc4n23)nn1)Nc1cccc(Cl)c1
4. CCOC(=O)CNC(=O)CN(Cc1ccccc1)C(=O)[C@@]1(C)CCC[C@]2(C)[C@H]3C[C@H]4C(C(C)C)=C[C@]3(CC[C@H]21)[C@@H]1C(=O)OC(=O)[C@@H]14
5. O=C(c1ccc(Cl)cc1)C1[C@H](c2ccccc2Br)[C@@H](c2ccccc2)NC12C(=O)Nc1ccc(Br)cc12 (stereo partly drawn)
6. CC(=O)Nc1ccc(-c2cn(-c3cccc(C(=O)Nc4ccc(Cl)c(C(F)(F)F)c4)c3)nn2)cn1
7. CN1CCN(c2ccc(Nc3nc(N4CCN(S(=O)(=O)c5ccc(F)cc5)CC4)c4sccc4n3)cc2)CC1

1: 0.664% (active); 2: -32.6% (active); 3: 45.2% (inactive); 4: 67.4% (inactive); 5: 21.3% (inactive); 6: 16.3% (inactive); 7: -62.7% (active)

Batch of 4 compounds: report growth for each.
1. O=c1nc(-c2ccccc2)cc(-c2cc3ccccc3nc2Cl)[nH]1
2. CC(=O)NNc1ccc2nnc(-c3ccc(Br)cc3)n2n1
3. CN(C)c1ccc(/C=C/c2nc3ccccc3c(=O)n2CC(=O)Nc2ccc(Cl)cc2)cc1
4. CC(=O)Nc1nc(-c2ccc(N3CCN(C)CC3)c(NS(=O)(=O)c3cccc4c(N(C)C)cccc34)c2)cs1

1. 45.5% (inactive)
2. 84.2% (inactive)
3. 75.1% (inactive)
4. 35.6% (inactive)

# map each compound to its growth
1. CC(C)C(=O)Nc1ccc(C(=O)NC(=S)Nc2ccc(C(=O)O)cc2)cc1
2. O=C(CSc1nnc(-c2c[nH]c3ccccc23)n1-c1ccccc1)Nc1ccc(C(=O)/C=C/c2ccc(Br)cc2)cc1

1. 98.9% (inactive)
2. 57.9% (inactive)

---

# Test system: MDA-MB-435 melanoma
# measurement-notes: NCI-60 one-dose screen, 48 h
# assay-setup: 10 µM
# Method: Growth inhibition of the MDA-MB-435 human Melanoma tumor cell line is measured as a screen for anti-cancer activity. Cells are grown in 96 well plates and exposed to the test compound for 48 hours. Compounds are tested at a single concentration, which is 10^-5 M for most compounds. The reported endpoint is percent growth (GI% or GIPRCNT), where numbers from 0 - 100% represent growth inhibition, and numbers from -100% - 0 represent cell death. […]
Compounds without any hit were thinned out: in the full panel of roughly 83,000, 20% have a hit. Active and inactive are the calls of the source. The calls were made as follows: active = growth percent below 10; inactive = the rest.
The categories you may choose from are active, inactive

Any idea what this test logged for N#Cc1c(-c2ccc(F)cc2)nc(SCc2ccc(F)cc2)nc1N1CCOCC1 ?
inactive

---

# Tested on: HCT-15 colon
# measurement-notes: NCI-60 one-dose screen, 48 h
# assay-setup: 10 µM
About 83,000 compounds went through this panel and 20% of them were active in at least one assay; those are over-represented in the sample as a whole. Active and inactive are the calls of the source. Rule for the calls: active = growth percent below 10; inactive = the rest.
Select the correct class. Options are true (active), false (inactive) and nothing else.

Please review the entries below; each comes with its answer.
compound	test-system	answer-label
C=C1CC[C@H](C(=C)C)[C@H]2C=C(C)C(=O)C3=C(C(=O)[C@@](C)(O)C3)[C@H]12	HCT-15 colon	true
Cc1ccc(C(C)C)cc1NC(=O)c1ccccc1O	HCT-15 colon	false
CN(C)c1cccc2c(S(=O)(=O)Nc3cccc(-c4csc(NC(=O)CCCCCN5CCN(c6cc7c(cc6F)C(=O)N(C6CCC(=O)NC6=O)C7=O)CC5)n4)c3)cccc12 (configuration not stated)	HCT-15 colon	false
CN1C(=O)N(C)C2SC(N/N=C/c3cccs3)=NC21 (configuration not stated)	HCT-15 colon	false
COc1ccc(-c2nc(S(=O)(=O)c3ccc(C)cc3)c(S(C)(=O)=O)o2)cc1	HCT-15 colon	true

What call does the record list for CC1=N/C(=C\c2ccc(N(C)C)cc2)C(=O)N1CCc1ccc(S(N)(=O)=O)cc1 ?
false

Recorded test call requested for N[C@@H](CSSC[C@H](N)C(=O)Nc1ccc(OCC2CCCC2)cc1)C(=O)Nc1ccc(OCC2CCCC2)cc1
true
